Values from the Human Domainome abundance scans (Beltran et al. 2025)

Below: a set of entries, each annotated with reported abundance fitness.
B1: POU domain, class 6, transcription factor 2, residues 609 to 663; numbered along this chain, P78424 (parent)
chain: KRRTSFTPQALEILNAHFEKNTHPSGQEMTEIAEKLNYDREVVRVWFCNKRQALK

variants of: B1; experiment: abundance fitness (aPCA) (normalised: wild type 0, dead -1); higher = more abundant; growth selection in yeast, the domain comes from the species named; settings: Homo sapiens
measuredParameter: abundance fitness

{"variantNotation": "H23R", "assayResult": 0.011}
{"variantNotation": "V42M", "assayResult": 0.034}
{"variantNotation": "T30N", "assayResult": -0.177}
{"variantNotation": "R40Q", "assayResult": -0.12}
{"variantNotation": "R51M", "assayResult": -0.377}
{"variantNotation": "N37Q", "assayResult": -0.06}
{"variantNotation": "H23E", "assayResult": 0.072}
{"variantNotation": "R44S", "assayResult": -0.094}
{"variantNotation": "T7A", "assayResult": -0.2}
{"variantNotation": "G26A", "assayResult": 0.035}
{"variantNotation": "R51S", "assayResult": -0.174}
